Assay: protease stability score; higher = more stable; yeast display proteolysis, trypsin and chymotrypsin;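 note: relative to predicted unfolded state with 0 unfolded-like and 1 meaning tenfold more protease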
Parameter: protease stability score
Could you keep your reply to the number by itself?

Query: State the recorded protease stability score for this entry: DEHEDHVLEVFRIILEILLTGDFREWRRLADPTVRLEFNGREYHGRDEILEFLTQHIRHWRLKHIHIDNYEVYDGRIEVHGHIRFTFNGKEHIIETRIIINVFDGRLHDEQYITH
Result: 1.53

Query: Moving on to the next sequence: DESEKLVERLTEDFRKAFETGDEKRLYNLMDPNVRLDINGVEIIGRELISKDLAHDLRRFKNVKMEFRLREIRVIGNFAHIDGRDIINVDGVEKYHESNYIVHKIDGRWHIKEIIIH
Result: 1.52

Query: Moving on to the next sequence: SEIDHIVKELIRRESEYLKTGDEDAFHDLFDPSTRIEINGQEFHGREWHKHLLKELRFHSIELHDWRIVGDKVEMDTRMLTEVGDKRDYRRTTMHATKFDGKWYLTRVIIE
Result: 1.24

* * *

Please go through the items and note down their protease stability score.
Assay: protease stability score; higher = more stable; yeast display proteolysis, trypsin and chymotrypsin;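 note: relative to predicted unfolded state with 0 unfolded-like and 1 meaning tenfold more protease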
Could you keep your reply to the number by itself?

Query: State the recorded protease stability score for this entry: SEDETIALEFLKNWLRDLKTGNEEALSKLLDPNARMVFNGKEHHGREILLDIIKHFVERIDHFNSLHVHDIKIQGDKVHMDLRLIGHVDGREVEHRIHMVIIKYDGRWINQVEEIE
Result: 1.16

Query: Moving on to the next sequence: DEHEEEVLRIARDFLEALRTGDEEHMTELMDPHVRLEVDGRDLHGREEVLRLLVEQWERIKNVTWEVERLEIVNGRLIIQLRVHVNGQNHDVRLYINVVDGVVKSIRHEKH
Result: 1.47

Query: Moving on to the next sequence: DELTEELRHLAHLMIVSLLTGDPSVFQRYLDPNTKSVVNGKNIHGMEEFDKIILEELKRVDHLEIELKRIDAFDGVTHIDGKLKLRIGDKTVETRMEVNIFTINGKVKSIEISRQ
Result: 1.33

Query: Moving on to the next sequence: DERHHRVKHWVHRFVHAWITGDERELRELLDPNVRLNFEFDGRREENVGRRDVDRFIHEILEKYKNVTIIFRDFEIVGDKFHLHTELIIGDKKHRIHIEINVINGQHEWIKIHIE
Result: 1.66

Query: Moving on to the next sequence: SENHKLSREALEHFLHLVHTGDFEKIYHMLDPNVKSEAENHHDHGMRDVVHLWRTMGIDHIRVHEVRIFENHLDVDMISIVGDKHFRLNIHIRKVNGRWQTELVRVN
Result: 1.8

Query: Moving on to the next sequence: SEDDEWLHNFIERLLHTILTGDEHIFSELADPNVRLDIGDKELHGWHLIVRHYIDEFRQFKGVRVHIRIRRFTQIGDKVHYDGELIFVIGDKTIIRELHLVVVKIDGRWKLEHFEIR
Result: 2.74

Query: Moving on to the next sequence: DEDEENTRQAIDRIIRSWMTGDEKTMTELLDPRVRVEQGDKEFHGREDYTRWINEMRITHIDLRSIEKIDGRLHVHLEFDESVNGKRHRVDVELTIVKINGQWFLESVRIR
Result: 0.681

Query: Moving on to the next sequence: DEEEERMQEKLHRYLHDLVTGDEEEFHKYADPHVKTRVGDKILHGREKAREFWHEIRIKDIKLDHKDIQGDFVRLHVRVHGRINGQDIDFRVEIFFRKINGRWIIESQEIN
Result: 0.816

Query: Moving on to the next sequence: SEKEEHLHELTRLLVEWFITGDEEDNLEQADPHVRMILIVDGRIIERHGREKLYEEAHRHLKRLGIDHYRIKHVDIQGEKVKINGQLEFNGVIYDARLTFVVINGKLHQEYRSEE
Result: 1.64

Query: Moving on to the next sequence: DHDKEYADRSIELWLKSHETGDEELVMRLADPHARVYVGEYEDHGREMVMIMLRVLGVDHYSVRSWHVQGDKVSITGELQVGDKKFRSHLTVRKVNGRWLLSEVRIG
Result: 1.16

Query: Moving on to the next sequence: DEDKESAEEAFKVWVRDLMTGDEDSLRRLVDPRTLVEVGDKHFHGRDMFVHLEKLQRERADHIRIELHDFDIQGEKIHLDVRVILEQGEKRVFLRTHYLILKVNGRWIVKSLWIQ
Result: 0.921

Query: Moving on to the next sequence: HEKEKLEKDIWRLLVEWLETGNEHEFEKFMDPDARLFEDVDGKELRIHGREIAMEILHHLWRDFGVDHLVLKKASIIDGVVHLDVILDVNGRRIDTRIIFVIINGRIHSTHIHIR
Result: 1.52

Query: Moving on to the next sequence: DSEEKDQRKASELTMRLLKTGNEDLMSHFFDPDTKVTIGDKEYHGREVLSHLLWEEKERIKGMRFEIKDLHVRYIGDKIRVESHVVLEINGVTLDTELIFHAEKVDGRWLSRSFEVRIT
Result: -0.023

Query: Moving on to the next sequence: SETEEAVKKVTHDLWHALLTGDEEIIRDLFDPHTKILINGVELHGMDEHKDFLDRFDHIHVHDRRIETVIVQGDKAISIGHIHVRFEYGDKHVSVHSEQRLIITKIDGKWIIRFVEIG
Result: 1.22

Query: Moving on to the next sequence: DEKDKMSEVTLKLYIHWFLTGDWKSLFDLVDPHMQVRVGDKKFHGREQAVEEIERLLKRIDHITHIQERSFEIIGNKVHLDGELNVIIDGKRIVKDQIIIAVKIDGKWLLQIDEFE
Result: 1.92

Query: Moving on to the next sequence: DEEERLLLEWVRLFLTAWETGDEKLQEKLMDPHARTDFNGVQLHGREEYSRFLSQLRIRRFHVRDESIRIVGNKAESEVDGEVEGEVNGQRFKQHTEIEIHSEKINGRWLWKSLTIRIK
Result: 1.5

Query: Moving on to the next sequence: DERKEDLDRALEEFLRSVETGDEELNERLADPNVKLVIDGVKYHGMEFIVKQLDEWRIHDMRIRRIRNVGEKVYVDLSVDGNFNGRRYRTEVKIVFTKINGRWLLETHIVD
Result: 1.87

Query: Moving on to the next sequence: SESEHKAREMIRLIEHFLITGDEESWHRLFDPHTRVVIDGREIHGMEIYNHWLKELRIRDSHIHIRTIEDINGRINIHGELQLHGIINGQTHDFRSHIDLHVLKFNGRWHMETYIIS
Result: 1.57

Query: Moving on to the next sequence: SERHEKTKKVLDDFLEIRETGDEHTFNRLADPHTRVHIGDKYVHGMEDANKMLKQWEQEMGIDHIIIRHVEIRLFNGKVNHHLDEELIVNGQSLRVEVVLFIFKFDGRWVLEKLHINVH
Result: 1.21

Query: Moving on to the next sequence: DEEEELSKRLVELLLKLLKTGNEEELIKNADPHAKVQIRINGREFIHHGWEAFSHLWRHYIIKFKNIRIHDRHMEIQGDWVHIHSEEQIGDKRIEVEIRIQIINGVQKNVHIDIHEH
Result: 1.47

Query: Moving on to the next sequence: DEDRESFEEVSRLLMEDIKTGDEDSWKKLADPHDRIVVGDKTSIGMETSIHLLRVLIHHIRFKDSKIKDIHSQGDKLHLETHLHGEVNGVEYHTFSHIVVRKVDGKWHLESVIII
Result: 1

Query: Moving on to the next sequence: SEDKNAVHEIVERFLKAMLTGDEHILKTLLDPHVRLHIGDKSRVGMERVIHELIHIRIHELRVESMEMRLWDGRAEVHVFGEVRQRVDGQERNITTSIILHIEKIDGRWHLTQLQFIIS
Result: 2.53

* * *

Test: protease stability score; higher = more stable; yeast display proteolysis, trypsin and chymotrypsin;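 note: relative to predicted unfolded state with 0 unfolded-like and 1 meaning tenfold more protease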
Please go through the items and note down their protease stability score.
Could you keep your reply to the number by itself?

Query: State the recorded protease stability score for this entry: REDEEFAIHMFLNLIRWLMTGDEEQLEELADPDTKYHQGDKTLHGREEFLKWFHLMHKWLGIKHIEMRITDLRAVDGRVESEVSVDEHYDGRTKRYRTIIIVNVVNGKLKSEERHID
Result: 1.22

Query: Moving on to the next sequence: NEIEEIVERLWRLYIQNRLTGDEDQMSRLADPHTRVHIHIGDKHIDIHGMENTARLTTKLRREIRMEIEIHHVTVQGNKLHAEVRLILHIGDKILESDTRIINIFVDGKLRTVHIHIE
Result: 1.32

Query: Moving on to the next sequence: DETREHTEHIMNIILHALHTGDEHLIRDMIDPHVRWELIIDGQTHNHIGRDEWEKLLEELGIDRIEVILKRFRIFENHSEVKGTIHINGKDADVVIYILVINGKIKEIRIIHV
Result: 2.19

Query: Moving on to the next sequence: DDHDKLMQDLTSMFVRDLITGDEKSMDELLDPDVKVDINGQETHGRDHFLEILNKNLKEWRVKDVKIEHVEWYGNKAHIRMEVIGNWNGKEHSLDFELHLLIVNGQFKEIRIKIR
Result: 1.5

Query: Moving on to the next sequence: SEENEHLHHLMRLVIEMFETGDEDRWYKLADPNTRMEVDGREFIGREEVIKFLRNLGVNHFWIDDVDIINGRAHIRSTLRFNGQERDLNINLHFVDGKLKREKWIIR
Result: 0.841

Query: Moving on to the next sequence: DEEQELTEMVFRIIKRLNETGNEEELRRNADPHVRLDWNGVHYHGREVYDHVWNMLGFEIKDTRIRDIRMQGEKIFVDGERRGNINGRTIDTRIIIIIIAVNGRMKEIVIRDL
Result: 1.3
